assayExplanation: The drug is tested on Clostridium sp. strain: fecal isolate for biotransformation. The drug concentrations were measured before and after a 12-h incubation by liquid-chromatography-coupled mass spectrometry (LC–MS)
reportedConditions: 2 µM
measuredProperty: Bacterial Biotransformation

Here is how some compounds turned out for Bacterial Biotransformation.
compound: CCN(CC)CCOCCOC(=O)C1(c2ccccc2)CCCC1.O=C(O)CC(O)(CC(=O)O)C(=O)O [CARBETAPENTANE CITRATE]
Bacterial Biotransformation: Compound metabolized
--
compound: CC(=O)OCC(=O)[C@@]1(OC(C)=O)[C@@H](C)C[C@H]2[C@@H]3C[C@H](F)C4=CC(=O)C=C[C@]4(C)[C@@]3(F)[C@@H](O)C[C@@]21C [DIFLORASONE DIACETATE]
Bacterial Biotransformation: Compound metabolized
--
compound: Clc1cccc(Cl)c1N=C1NCCN1 [CLONIDINE]
Bacterial Biotransformation: Compound NOT metabolized
--
compound: CC(Oc1c(Cl)cccc1Cl)C1=NCCN1 (centres undefined) [LOFEXIDINE]
Bacterial Biotransformation: Compound metabolized
--
compound: N#Cc1ccc(C(c2ccc(C#N)cc2)n2cncn2)cc1 [LETROZOLE]
Bacterial Biotransformation: Compound NOT metabolized
--
compound: CN1[C@@H]2CC[C@H]1C[C@@H](OC(=O)c1c[nH]c3ccccc13)C2 [TROPISETRON]
Bacterial Biotransformation: Compound NOT metabolized

Query Bacterial Biotransformation for CS(=O)(=O)O.O.O.O.O=C1Cc2cc(CCN3CCN(c4nsc5ccccc45)CC3)c(Cl)cc2N1 [ZIPRASIDONE MESYLATE]
Compound NOT metabolized

Query Bacterial Biotransformation for C[C@H]1O[C@@H](O[C@H]2[C@@H](O)C[C@H](O[C@H]3[C@@H](O)C[C@H](O[C@H]4CC[C@@]5(C)[C@H](CC[C@@H]6[C@@H]5C[C@@H](O)[C@]5(C)[C@@H](C7=CC(=O)OC7)CC[C@]65O)C4)O[C@@H]3C)O[C@@H]2C)C[C@H](O)[C@@H]1O [DIGOXIN]
Compound metabolized

Query Bacterial Biotransformation for CC(C)C[C@H]1C(=O)N2CCC[C@H]2[C@]2(O)O[C@](NC(=O)[C@@H]3C=C4c5cccc6[nH]c(Br)c(c56)C[C@H]4N(C)C3)(C(C)C)C(=O)N12.CS(=O)(=O)O [BROMOCRIPTINE MESYLATE]
Compound metabolized

Query Bacterial Biotransformation for CC[C@H](C)C(=O)O[C@H]1CCC=C2C=C[C@H](C)[C@H](CC[C@@H]3C[C@@H](O)CC(=O)O3)[C@H]21 [MEVASTATIN]
Compound metabolized

Query Bacterial Biotransformation for "CCCCC(=O)N(Cc1ccc(-c2ccccc2-c2nnn[nH]2)cc1)[C@H](C(=O)O)C(C)C"
Compound NOT metabolized

Query Bacterial Biotransformation for CN1C(=O)CCS(=O)(=O)C1c1ccc(Cl)cc1 (centres undefined) [CHLORMEZANONE]
Compound metabolized

Query Bacterial Biotransformation for CC(=O)O[C@]1(C(C)=O)CC[C@H]2[C@@H]3C=C(Cl)C4=CC(=O)[C@@H]5C[C@@H]5[C@]4(C)[C@H]3CC[C@@]21C [CYPROTERONE ACETATE]
Compound metabolized

Query Bacterial Biotransformation for O=C1[C@H](CC[C@H](O)c2ccc(F)cc2)[C@@H](c2ccc(O)cc2)N1c1ccc(F)cc1 [EZETIMIBE]
Compound NOT metabolized

These measurements were taken from ChEMBL document CHEMBL5303573.
